Quick reference: GI50 of the listed items.
System: SF-295
Experiment notes: NCI tumour cell line growth inhibition, 48 h
Activity calls are given as the source filed them. No stated cut-off is given here; in the data, active = GI50 up to about 1.1 µM and inactive = higher.

| Compound | GI50 |
| --- | --- |
| COC12OC3(C4OC41)C(C(=O)O[C@H]3CO[Si](C)(C)C(C)(C)C)C2S(=O)(=O)c1ccccc1 (stereo not given in full) | > 25.5 µM (inactive) |
| COc1cc2c(/C=C3/C(=O)Nc4cccc(Cl)c43)c(Cl)[nH]c2cc1C | 1.69 µM (inactive) |
| COC(=O)C1=C(C(=O)OC)C2(CCCCCC2=O)OC1=O (stereo not given) | > 100 µM (inactive) |
| CCCc1c(-c2ccccc2)[nH]c2ccccc2c1=O | > 100 µM (inactive) |
| Cc1cc2c(cc1C)C(=O)/C(=C/c1ccccc1C(=O)O)C2 | 32.5 µM (inactive) |
| C[C@]12CC[C@H]3[C@@H](CC=C4C[C@@H](O)CC[C@@]43C)[C@@H]1C/C(=C\c1ccc([N+](=O)[O-])cc1)[C@@H]2O | 16.8 µM (inactive) |
| Clc1ccc(/N=N/c2nc3ccccc3nc2/N=N/c2ccc(Cl)cc2Cl)c(Cl)c1 | > 100 µM (inactive) |
| CCOC(=O)N/N=C(/N)Cc1ccc(Cl)cc1 | > 100 µM (inactive) |
| Cn1c(=O)c2c(nc3sc4ncccc4c(=O)n32)n(C)c1=O | > 100 µM (inactive) |
| Cc1c2ccncc2c(C)c2c1[nH]c1ccc(OC(C)(C)C)cc12 | 2.07 µM (inactive) |

* * *

Quick reference: GI50 of the listed items.
Test system: U-251
Experiment notes: NCI tumour cell line growth inhibition, 48 h
Activity calls are given as the source filed them. Rule as the data show it: active = GI50 up to about 1.1 µM and inactive = higher.

| Molecule | GI50 |
| --- | --- |
| Cc1ccc(S(=O)(=O)N/N=C/c2oc(-c3cccc([N+](=O)[O-])c3)c(-c3cccc([N+](=O)[O-])c3)c2[N+](=O)[O-])cc1 | 66.5 µM (inactive) |
| O=C1CCC(c2nc3ccccc3o2)C(=O)N1 (stereo not given) | > 100 µM (inactive) |
| COC(=O)C1CC2(CC3=C1CCCC3)OCCO2 (stereo not given) | > 100 µM (inactive) |
| CC(O)C1OC(O)C2OC(C)(C)OC12 (stereo not given) | > 100 µM (inactive) |
| COc1ccc(C=C(c2ccc(OCc3ccccc3)cc2)c2ccc(OCc3ccccc3)cc2)cc1 | > 100 µM (inactive) |
| C#C[C@@H](OC(=O)c1ccc([N+](=O)[O-])cc1)[C@@H]1C[C@H]2O[C@@H]([C@H](C/C=C/CC)OC(=O)c3ccc([N+](=O)[O-])cc3)C[C@H]2O1 | > 100 µM (inactive) |
| CC(C)S(=O)(=O)n1c(N)nc2ccc(/C(=N/O)c3ccccc3)cc21 | 39.3 µM (inactive) |
| O=C(O)c1cncc(C(=O)O)c1 | > 100 µM (inactive) |
| CCOC(=O)/C(=C\NCC(OCC)OCC)c1nc2ccccc2[nH]1 | 35.5 µM (inactive) |
| COc1ccc(Oc2cccc(C3C4C(=O)N(c5ccc(C)c(Cl)c5)C(=O)C4ON3C(C(N)=O)c3ccccc3)c2)cc1 (stereo not given) | 16.6 µM (inactive) |

* * *

Quick reference: GI50 of the listed items.
Tested on: SN12C
Experiment notes: NCI tumour cell line growth inhibition, 48 h
Activity calls are given as the source filed them. Cut-off read from the data, not from the text of the source: active = GI50 up to about 1.1 µM and inactive = higher.

| Molecule | GI50 |
| --- | --- |
| CN1CCN(C2=C(Cl)C(=O)c3c(O)ccc(O)c3C2=O)CC1 | 0.826 µM (active) |
| c1ccc(Nc2nnc(-c3nsc4ccccc34)o2)cc1 | 71.1 µM (inactive) |
| C#CC(O)(c1nc2ccccc2s1)c1nc2ccccc2s1 | 17.8 µM (inactive) |
| c1ccc2c(c1)cc1ccc3cccc4ccc2c1c34 | > 100 µM (inactive) |
| CCC(C#N)N(Cc1cccc(CN(C(C)=O)C(C#N)CC)c1)C(C)=O (stereo not drawn) | > 100 µM (inactive) |
| CS(=O)(=O)Nc1ccc2c(c1)oc(=O)c1ccccc12 | > 100 µM (inactive) |
| COCN/C(N)=N/C#N | > 100 µM (inactive) |
| c1ccc(C2=Nc3cccc4cccc(c34)N2)cc1 | > 78.7 µM (inactive) |
| O=C1c2c(Br)sc(Br)c2[C@@H](Cl)[C@H]1Cl | 8.87 µM (inactive) |
| N#Cc1nc(C#N)c(NC(=O)c2ccccc2C(=O)O)[nH]1 | > 100 µM (inactive) |
| Cn1c(=O)c2c(nc3sc4ncccc4c(=O)n32)n(C)c1=O | > 100 µM (inactive) |
| CC(C)(C)OC(=O)C1/C(=C/CBr)CN1C(=O)OC(C)(C)C (stereo not drawn) | 12.6 µM (inactive) |
| CCOC(=O)CCNC(=O)c1cc(C)cc2c1Oc1c(cc(C)cc1C(=O)NCCC(=O)OCC)S2 | > 100 µM (inactive) |
